B1: EHEE_rd2_0196 (parent)
chain: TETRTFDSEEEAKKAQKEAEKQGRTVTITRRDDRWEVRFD

variants of: B1; assay: folding stability dG (cDNA display proteolysis); higher = more stable; details: PBS, room temperature
The reader will find reported folding stability dG values listed item by item below.
Form entry: value (kcal/mol) — number only.

>  <Entry Sequence>
EETRTFDSEEEAKKAQKEAEKQGRTVTITRRDDRWEVRFD [T1E]

>  <Endpoint Unit>
kcal/mol

>  <folding stability dG>
2.93

$$$$
>  <Entry Sequence>
TETRTFDSEEEAKKAQKEAEKQGRTVTITRRDDRWEVRFA [D40A]

>  <Endpoint Unit>
kcal/mol

>  <folding stability dG>
2.97

$$$$

Note folding stability dG for the variant shown: TETRTFDSEEEAKKAQTEAEKQGRTVTITRRDDRWEVRFD [K17T]
2.91

For the variant TETRTFDSEEEAKKAQKEAEKQGRTVTITRRDARWEVRFD [D33A] , report folding stability dG.
1.96

# return recorded folding stability dG for entry TETRTFDSEEEAKKAQKEAWKQGRTVTITRRDDRWEVRFD [E20W]
2.94

Give recorded folding stability dG. TETRTFDSEEEAKKAQKEAEKQGRTVTITRRDDRWEVRMD [F39M]
2.96

Using the record for TETRTFDSEEEAKKAQKEAEKQGRTVTITRRDDRWEVRFM [D40M] , state its measured folding stability dG.
3.01
